Data credit: ChEMBL document CHEMBL4630904

study.target: Voltage-dependent L-type calcium channel subunit alpha-1C (dihydropyridine site) (Rattus norvegicus, UniProt P22002)
Sequence (P22002 whole entry): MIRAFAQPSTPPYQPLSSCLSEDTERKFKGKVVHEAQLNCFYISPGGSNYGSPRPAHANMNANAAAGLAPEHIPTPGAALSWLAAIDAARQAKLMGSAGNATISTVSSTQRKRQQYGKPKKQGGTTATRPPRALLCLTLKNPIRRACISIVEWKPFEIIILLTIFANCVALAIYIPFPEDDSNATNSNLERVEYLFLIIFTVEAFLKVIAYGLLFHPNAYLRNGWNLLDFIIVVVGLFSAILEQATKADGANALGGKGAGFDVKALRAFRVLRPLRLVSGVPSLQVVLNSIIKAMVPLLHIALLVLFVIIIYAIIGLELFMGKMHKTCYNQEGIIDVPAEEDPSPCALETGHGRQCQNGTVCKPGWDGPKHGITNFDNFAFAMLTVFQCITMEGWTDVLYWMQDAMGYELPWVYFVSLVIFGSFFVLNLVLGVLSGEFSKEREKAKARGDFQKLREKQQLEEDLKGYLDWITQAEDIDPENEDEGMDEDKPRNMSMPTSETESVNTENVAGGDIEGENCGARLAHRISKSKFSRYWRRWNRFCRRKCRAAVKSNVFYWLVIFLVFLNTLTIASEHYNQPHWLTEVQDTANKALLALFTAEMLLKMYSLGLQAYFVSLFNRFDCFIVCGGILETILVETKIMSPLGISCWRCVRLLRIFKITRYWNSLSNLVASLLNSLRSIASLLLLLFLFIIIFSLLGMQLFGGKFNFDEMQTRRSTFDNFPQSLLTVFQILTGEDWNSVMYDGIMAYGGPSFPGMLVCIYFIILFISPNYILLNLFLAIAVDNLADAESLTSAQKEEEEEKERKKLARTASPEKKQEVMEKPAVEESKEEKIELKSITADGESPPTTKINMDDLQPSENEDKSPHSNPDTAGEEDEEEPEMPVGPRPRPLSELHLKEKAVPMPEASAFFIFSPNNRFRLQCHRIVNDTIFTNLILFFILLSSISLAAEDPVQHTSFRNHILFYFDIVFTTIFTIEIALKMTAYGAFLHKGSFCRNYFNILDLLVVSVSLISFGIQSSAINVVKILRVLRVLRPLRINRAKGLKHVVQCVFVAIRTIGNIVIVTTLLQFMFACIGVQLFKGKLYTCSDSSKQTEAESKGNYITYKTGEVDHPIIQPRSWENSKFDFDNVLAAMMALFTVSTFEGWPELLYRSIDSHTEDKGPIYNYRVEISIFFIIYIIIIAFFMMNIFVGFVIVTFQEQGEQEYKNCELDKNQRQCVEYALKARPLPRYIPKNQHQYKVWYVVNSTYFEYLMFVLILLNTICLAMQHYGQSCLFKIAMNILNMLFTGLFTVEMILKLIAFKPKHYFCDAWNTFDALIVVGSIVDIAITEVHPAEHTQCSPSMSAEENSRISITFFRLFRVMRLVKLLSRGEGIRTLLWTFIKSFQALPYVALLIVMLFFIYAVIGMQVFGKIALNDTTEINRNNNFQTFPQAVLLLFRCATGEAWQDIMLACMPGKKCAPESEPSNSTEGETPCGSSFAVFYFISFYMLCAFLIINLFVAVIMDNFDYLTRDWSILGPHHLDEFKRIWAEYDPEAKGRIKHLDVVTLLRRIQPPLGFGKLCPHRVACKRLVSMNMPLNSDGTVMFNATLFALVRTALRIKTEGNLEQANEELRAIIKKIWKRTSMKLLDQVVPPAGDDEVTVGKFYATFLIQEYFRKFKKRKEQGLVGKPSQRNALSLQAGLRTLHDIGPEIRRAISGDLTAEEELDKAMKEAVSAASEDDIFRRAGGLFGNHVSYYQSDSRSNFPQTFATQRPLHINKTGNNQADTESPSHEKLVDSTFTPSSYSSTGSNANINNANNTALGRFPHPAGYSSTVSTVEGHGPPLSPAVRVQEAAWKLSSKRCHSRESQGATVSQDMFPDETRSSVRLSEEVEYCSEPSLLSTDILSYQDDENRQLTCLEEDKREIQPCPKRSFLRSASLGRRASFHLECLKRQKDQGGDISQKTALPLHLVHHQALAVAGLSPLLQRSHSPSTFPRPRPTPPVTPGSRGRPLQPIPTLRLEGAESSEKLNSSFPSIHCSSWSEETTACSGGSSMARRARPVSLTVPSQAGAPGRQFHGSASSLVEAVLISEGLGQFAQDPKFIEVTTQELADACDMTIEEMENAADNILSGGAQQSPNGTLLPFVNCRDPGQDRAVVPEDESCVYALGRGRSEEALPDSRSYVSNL
experiment.summary: CA+/DHPSI/R Eurofins SafetyScreen44 (BI)
Set-up: mode of action inhibitor
run.parameters: rat brain, probe [3H](+)PN200-110, compound concentration 10 uM, read-out: % Ctrl
recorded.metric: activity at 10 µM

Request the reported activity at 10 µM associated with Cn1c(C2(NC(=O)c3ccc4c(C5CCCC5)c(-c5ncc(Br)cn5)n(C)c4c3)CCC2)nc2ccc(/C=C/C(=O)O)cc21 [DELEOBUVIR]
105% (not active)

====

study.target: UniProt:P21396
Sequence (P21396 whole entry): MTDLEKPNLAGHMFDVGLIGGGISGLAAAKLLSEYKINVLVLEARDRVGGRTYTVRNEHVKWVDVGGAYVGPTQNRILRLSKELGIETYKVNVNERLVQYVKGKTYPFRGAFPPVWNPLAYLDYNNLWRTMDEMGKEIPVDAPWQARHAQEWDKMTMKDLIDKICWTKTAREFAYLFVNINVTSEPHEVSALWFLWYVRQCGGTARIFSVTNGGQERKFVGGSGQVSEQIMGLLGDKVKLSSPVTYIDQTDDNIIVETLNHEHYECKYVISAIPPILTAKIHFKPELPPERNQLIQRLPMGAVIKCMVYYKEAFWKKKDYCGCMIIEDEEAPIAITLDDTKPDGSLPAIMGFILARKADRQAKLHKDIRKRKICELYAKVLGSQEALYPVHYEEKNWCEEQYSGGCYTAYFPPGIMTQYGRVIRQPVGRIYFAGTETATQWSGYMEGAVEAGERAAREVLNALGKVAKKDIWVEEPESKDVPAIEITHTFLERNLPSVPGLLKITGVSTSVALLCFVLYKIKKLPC
experiment.summary: MAO-A_ANTAG Eurofins SafetyScreen44 (BI)
Design: mode of action antagonist; scale not given: the % may be the effect or the level left
run.parameters: compound concentration 10 uM, read-out: % Ctrl
recorded.metric: activity at 10 µM

Request the reported activity at 10 µM associated with Cn1c(C2(NC(=O)c3ccc4c(C5CCCC5)c(-c5ncc(Br)cn5)n(C)c4c3)CCC2)nc2ccc(/C=C/C(=O)O)cc21
92% (not active)

====

study.target: hERG (KCNH2) (Homo sapiens, UniProt Q12809)
Sequence (Q12809 whole entry): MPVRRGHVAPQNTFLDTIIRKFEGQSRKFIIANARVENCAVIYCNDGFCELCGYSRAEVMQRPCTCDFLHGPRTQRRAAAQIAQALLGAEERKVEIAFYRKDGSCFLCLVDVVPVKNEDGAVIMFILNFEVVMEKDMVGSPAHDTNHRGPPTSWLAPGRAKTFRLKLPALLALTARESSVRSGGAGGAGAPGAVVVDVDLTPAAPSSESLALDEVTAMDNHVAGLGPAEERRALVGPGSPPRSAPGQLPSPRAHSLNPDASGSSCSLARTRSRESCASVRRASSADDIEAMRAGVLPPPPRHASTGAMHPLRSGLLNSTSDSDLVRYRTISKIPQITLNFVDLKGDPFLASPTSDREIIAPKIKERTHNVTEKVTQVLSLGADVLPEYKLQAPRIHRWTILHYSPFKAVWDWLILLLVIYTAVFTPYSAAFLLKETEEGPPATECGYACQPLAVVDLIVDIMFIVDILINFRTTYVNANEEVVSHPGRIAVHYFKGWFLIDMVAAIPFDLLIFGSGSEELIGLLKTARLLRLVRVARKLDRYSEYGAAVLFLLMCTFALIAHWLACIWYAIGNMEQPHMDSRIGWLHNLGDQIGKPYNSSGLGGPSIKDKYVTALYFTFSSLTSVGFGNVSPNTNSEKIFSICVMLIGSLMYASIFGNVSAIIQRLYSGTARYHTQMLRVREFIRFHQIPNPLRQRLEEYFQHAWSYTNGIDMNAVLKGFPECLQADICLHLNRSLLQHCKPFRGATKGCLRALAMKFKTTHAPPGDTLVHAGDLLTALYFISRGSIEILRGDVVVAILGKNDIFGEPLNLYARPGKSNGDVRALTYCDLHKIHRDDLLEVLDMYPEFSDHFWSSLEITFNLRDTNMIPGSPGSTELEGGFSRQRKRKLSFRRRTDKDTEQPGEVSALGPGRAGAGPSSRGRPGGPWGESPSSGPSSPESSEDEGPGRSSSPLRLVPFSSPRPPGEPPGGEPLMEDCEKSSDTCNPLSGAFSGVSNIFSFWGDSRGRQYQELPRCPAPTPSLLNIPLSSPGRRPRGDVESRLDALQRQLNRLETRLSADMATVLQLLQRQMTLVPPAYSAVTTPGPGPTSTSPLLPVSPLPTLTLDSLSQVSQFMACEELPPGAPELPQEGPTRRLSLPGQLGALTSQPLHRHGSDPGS
experiment.summary: HERG_DOFETILIDE Eurofins SafetyScreen44 (BI)
Parameters: mode of action inhibitor
run.parameters: probe [3H] Dofetilide, compound concentration 10 uM, read-out: % Ctrl
recorded.metric: activity at 10 µM

Request the reported activity at 10 µM associated with Cn1c(C2(NC(=O)c3ccc4c(C5CCCC5)c(-c5ncc(Br)cn5)n(C)c4c3)CCC2)nc2ccc(/C=C/C(=O)O)cc21 [DELEOBUVIR]
68% (not active)
